assay: Oral bioavailability rhesus monkey; type: ADME, organism-based, Macaca mulatta; details: in vivo
Observation Type: bioavailability

Molecule	Reading
Cn1c(-c2ccccn2)c(C2CCCC2)c2ccc(C(=O)NC3(C(=O)Nc4ccc(/C=C/C(=O)O)cc4)CCC3)cc21 [BILB-1941]	70%

====

test: in vitro; conditions: rat, liver microsomes

Mol	Measurement Units	Qual	half-life
COc1ccc(-c2c(C3CCCC3)c3ccc(C(=O)NC4(C(=O)Nc5ccc(/C=C/C(=O)O)cc5)CCC4)cc3n2C)cn1	h	=	1.02
Cn1c(-c2cccc(N)n2)c(C2CCCC2)c2ccc(C(=O)NC3(C(=O)Nc4ccc(/C=C/C(=O)O)cc4)CCC3)cc21	h	=	1.03
Cn1c(-c2cnccn2)c(C2CCCC2)c2ccc(C(=O)NC3(C(=O)Nc4ccc(/C=C/C(=O)O)cc4)CCC3)cc21	h	=	0.933
Cn1c(-c2ccc(Cl)cc2)c(C2CCCC2)c2ccc(C(=O)NC3(C(=O)Nc4ccc(/C=C/C(=O)O)cc4)CCC3)cc21	h	>	5
Cn1c(-c2ccncc2)c(C2CCCC2)c2ccc(C(=O)NC3(C(=O)Nc4ccc(/C=C/C(=O)O)cc4)CCC3)cc21	h	=	1.15

====

assay: in vitro; settings: human, microsomes
Reported half-life values for the following molecules.
Observation Type: half-life (h)

Molecule	Qual	Reading
Cn1c(-c2ccccn2)c(C2CCCC2)c2ccc(C(=O)NC3(C(=O)Nc4ccc(/C=C/C(=O)O)cc4)CCC3)cc21 [BILB-1941]	=	1.42
CN1CC[C@@](NC(=O)c2ccc3c(C4CCCC4)c(-c4cccc(N)n4)n(C)c3c2)(C(=O)Nc2ccc(/C=C/C(=O)O)cc2)C1	>	5
Cn1c(-c2ccc(Cl)cn2)c(C2CCCC2)c2ccc(C(=O)NC(C)(C)C(=O)Nc3ccc(/C=C/C(=O)O)cc3)cc21	=	3.93
Cn1c(-c2ccoc2)c(C2CCCC2)c2ccc(C(=O)NC3(C(=O)Nc4ccc(/C=C/C(=O)O)cc4)CCC3)cc21	=	2.7
Cc1ccc(-c2c(C3CCCC3)c3ccc(C(=O)NC4(C(=O)Nc5ccc(/C=C/C(=O)O)cc5)CCC4)cc3n2C)nc1	=	0.883
Cn1c(-c2ccccn2)c(C2CCCC2)c2ccc(C(=O)NC3(C(=O)Nc4ccc(/C=C/C(=O)O)cc4)CCCC3)cc21	=	1.6

====

assay: Volume of distribution at steady state in rhesus monkey at 2 mg/kg, iv; format: ADME, organism-based, Macaca mulatta; set-up: dose 2 mg/kg, route intravenous; conditions: in vivo, read-out: Vdss

Mol	Measurement Units	Vd
Cn1c(-c2ccccn2)c(C2CCCC2)c2ccc(C(=O)NC3(C(=O)Nc4ccc(/C=C/C(=O)O)cc4)CCC3)cc21	L/kg	0.7

====

assay: Volume of distribution at steady state in dog at 2 mg/kg, iv; assay type: ADME, organism-based, Canis lupus familiaris; parameters: dose 2 mg/kg, route intravenous; settings: in vivo, read-out: Vdss
Observation Type: Vd

Molecule	Reading
Cn1c(-c2cnccn2)c(C2CCCC2)c2ccc(C(=O)NC3(C(=O)Nc4ccc(/C=C/C(=O)O)cc4)CCC3)cc21	0.75 L/kg
Cn1c(-c2ccccn2)c(C2CCCC2)c2ccc(C(=O)NC3(C(=O)Nc4ccc(/C=C/C(=O)O)cc4)CCC3)cc21 [BILB-1941]	0.54 L/kg

====

Reported half-life values for the following compounds.
assay: Half life in rat at 2 mg/kg, iv; assay type: ADME, organism-based; set-up: dose 2 mg/kg, route intravenous; conditions: in vivo

Mol	half-life
Cn1c(-c2ccccn2)c(C2CCCC2)c2ccc(C(=O)NC(C)(C)C(=O)Nc3ccc(/C=C/C(=O)O)cc3)cc21	1.7 h
Cn1c(-c2ccccn2)c(C2CCCC2)c2ccc(C(=O)NC3(C(=O)Nc4ccc(/C=C/C(=O)O)cc4)CCC3)cc21	1.5 h
Cn1c(-c2cnccn2)c(C2CCCC2)c2ccc(C(=O)NC3(C(=O)Nc4ccc(/C=C/C(=O)O)cc4)CCC3)cc21	2.2 h

====

experiment: Oral bioavailability in dog; format: ADME, organism-based, Canis lupus familiaris; conditions: in vivo
Reported bioavailability values for the following compounds.

Mol	bioavailability
Cn1c(-c2cnccn2)c(C2CCCC2)c2ccc(C(=O)NC3(C(=O)Nc4ccc(/C=C/C(=O)O)cc4)CCC3)cc21	54%
Cn1c(-c2ccccn2)c(C2CCCC2)c2ccc(C(=O)NC3(C(=O)Nc4ccc(/C=C/C(=O)O)cc4)CCC3)cc21	64%

====

assay: Cmax in rat at 10 mg/kg, po; format: ADME, organism-based; set-up: dose 10 mg/kg, route oral; settings: in vivo
Label rule, in plain words: Cmax of 4 µM and up is true (1), under 4 µM is false (0).

Molecule	Class
Cn1c(-c2ccccn2)c(C2CCCC2)c2ccc(C(=O)NC(C)(C)C(=O)Nc3ccc(/C=C/C(=O)O)cc3)cc21	true (1)
Cn1c(-c2cnccn2)c(C2CCCC2)c2ccc(C(=O)NC3(C(=O)Nc4ccc(/C=C/C(=O)O)cc4)CCC3)cc21	true (1)
Cn1c(-c2ccccn2)c(C2CCCC2)c2ccc(C(=O)NC3(C(=O)Nc4ccc(/C=C/C(=O)O)cc4)CCC3)cc21 [BILB-1941]	true (1)
Cn1c(-c2cccc(N)n2)c(C2CCCC2)c2ccc(C(=O)NC3(C(=O)Nc4ccc(/C=C/C(=O)O)cc4)CCC3)cc21	false (0)
CN1CC[C@@](NC(=O)c2ccc3c(C4CCCC4)c(-c4cccc(N)n4)n(C)c3c2)(C(=O)Nc2ccc(/C=C/C(=O)O)cc2)C1	false (0)

====

assay: Half life in rhesus monkey at 2 mg/kg, iv; assay type: ADME, organism-based, Macaca mulatta; set-up: dose 2 mg/kg, route intravenous; settings: in vivo

Mol	half-life, h
Cn1c(-c2ccccn2)c(C2CCCC2)c2ccc(C(=O)NC3(C(=O)Nc4ccc(/C=C/C(=O)O)cc4)CCC3)cc21	1.7

====

test: Mean residence time in rat at 10 mg/kg, po; format: ADME, organism-based; design: dose 10 mg/kg, route oral; details: in vivo
Observation Type: MRT (h)

Mol	Measurement Units	Reading
Cn1c(-c2cccc(N)n2)c(C2CCCC2)c2ccc(C(=O)NC3(C(=O)Nc4ccc(/C=C/C(=O)O)cc4)CCC3)cc21	h	3.4
Cn1c(-c2ccccn2)c(C2CCCC2)c2ccc(C(=O)NC3(C(=O)Nc4ccc(/C=C/C(=O)O)cc4)CCC3)cc21	h	4.1
Cn1c(-c2cnccn2)c(C2CCCC2)c2ccc(C(=O)NC3(C(=O)Nc4ccc(/C=C/C(=O)O)cc4)CCC3)cc21	h	2.4
Cn1c(-c2ccccn2)c(C2CCCC2)c2ccc(C(=O)NC(C)(C)C(=O)Nc3ccc(/C=C/C(=O)O)cc3)cc21	h	1.7

====

experiment: in vitro; conditions: human, liver microsomes
Observation Type: half-life (h)

Mol	Observation Type	Measurement Units	Qual	Reading
Cn1c(-c2cccc(N)n2)c(C2CCCC2)c2ccc(C(=O)NC3(C(=O)Nc4ccc(/C=C/C(=O)O)cc4)CCC3)cc21	half-life	h	>	5
COc1ccc(-c2c(C3CCCC3)c3ccc(C(=O)NC4(C(=O)Nc5ccc(/C=C/C(=O)O)cc5)CCC4)cc3n2C)cn1	half-life	h	=	1.58
Cn1c(-c2cnccn2)c(C2CCCC2)c2ccc(C(=O)NC3(C(=O)Nc4ccc(/C=C/C(=O)O)cc4)CCC3)cc21	half-life	h	=	1.6
Cn1c(-c2ccncc2)c(C2CCCC2)c2ccc(C(=O)NC3(C(=O)Nc4ccc(/C=C/C(=O)O)cc4)CCCC3)cc21	half-life	h	=	1.78
Cn1c(-c2ccc(Cl)cn2)c(C2CCCC2)c2ccc(C(=O)NC3(C(=O)Nc4ccc(/C=C/C(=O)O)cc4)CCCC3)cc21	half-life	h	>	5
Cn1c(-c2ccc(F)cn2)c(C2CCCC2)c2ccc(C(=O)NC3(C(=O)Nc4ccc(/C=C/C(=O)O)cc4)CCC3)cc21	half-life	h	=	2.78
Cn1c(-c2ccc(Cl)cc2)c(C2CCCC2)c2ccc(C(=O)NC3(C(=O)Nc4ccc(/C=C/C(=O)O)cc4)CCC3)cc21	half-life	h	>	5
Cn1c(-c2ccncc2)c(C2CCCC2)c2ccc(C(=O)NC3(C(=O)Nc4ccc(/C=C/C(=O)O)cc4)CCC3)cc21	half-life	h	=	1.87

====

experiment: AUC in rhesus monkey at 10 mg/kg, po; type: ADME, organism-based, Macaca mulatta; design: dose 10 mg/kg, route oral; settings: plasma

Compound	AUC, µM·h
Cn1c(-c2ccccn2)c(C2CCCC2)c2ccc(C(=O)NC3(C(=O)Nc4ccc(/C=C/C(=O)O)cc4)CCC3)cc21 [BILB-1941]	20.5

====

test: Cmax in dog at 10 mg/kg, po; type: ADME, organism-based, Canis lupus familiaris; design: dose 10 mg/kg, route oral; conditions: in vivo
Observation Type: Cmax (µM)

Mol	Reading
Cn1c(-c2cnccn2)c(C2CCCC2)c2ccc(C(=O)NC3(C(=O)Nc4ccc(/C=C/C(=O)O)cc4)CCC3)cc21	10.9
